molecular target: T1, Cyno CD33 full length (cynomolgus monkey); assay: flow cytometry on HEK293F cells expressing cyno CD33
T1 construct: also called cyCD33
QUANTITY: MFI at 0.6 nM

Solved entries (count: 3):
C33B909 (antibody, V domains shown, OMNIMouse-derived anti-CD33 mAb; same V regions as C33B901; The OMNIMouse mAbs were cloned into both IgG1 and IgG4 PAA; also called C33H249/C33L115) VH: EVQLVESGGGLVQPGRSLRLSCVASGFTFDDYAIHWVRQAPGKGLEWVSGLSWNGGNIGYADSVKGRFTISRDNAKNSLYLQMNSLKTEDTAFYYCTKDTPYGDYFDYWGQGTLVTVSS VL: DIQMTQSPSSVWASVGDRVTITCRASQGISSWLAWYQQQPGKAPNLLIYRSSSLQSGVPSRFSGSGSGTDFTLTISSLQPEDFATYYCQQDNSFPYTFGQGTKLEIK | 116 MFI
C33B910 (antibody, V domains shown, OMNIMouse-derived anti-CD33 mAb; same V regions as C33B902; also called C33H250/C33L116) VH: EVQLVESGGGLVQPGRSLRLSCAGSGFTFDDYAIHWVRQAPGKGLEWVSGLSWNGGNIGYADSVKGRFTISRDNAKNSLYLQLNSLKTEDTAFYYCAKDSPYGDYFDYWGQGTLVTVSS VL: DIQMTQSPSSEWASVGDRVTITCRASQGISSWLAWYQQKPGKAPKLLIYGASSWQSGVPSRFSGSGSGTDFTLTISSLQPEDFATYYCQQDNSFPYTFGQGTKLEIK | 117 MFI
C33B915 (antibody, V domains shown, OMNIMouse-derived anti-CD33 mAb; same V regions as C33B907; also called C33H255/C33L121; C33F553) VH: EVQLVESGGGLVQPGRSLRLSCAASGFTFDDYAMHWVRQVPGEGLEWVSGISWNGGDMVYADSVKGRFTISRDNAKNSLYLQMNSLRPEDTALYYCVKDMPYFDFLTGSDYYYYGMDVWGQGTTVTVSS VL: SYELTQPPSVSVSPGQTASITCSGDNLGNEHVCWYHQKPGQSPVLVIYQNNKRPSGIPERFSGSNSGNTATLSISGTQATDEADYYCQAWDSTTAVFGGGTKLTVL | 36200 MFI

Next up:
Request: Look at this binder and give its reported MFI at 0.6 nM. C33B916 (antibody, V domains shown, OMNIMouse-derived anti-CD33 mAb; same V regions as C33B908; also called C33H256/C33L122; C33F554) VH: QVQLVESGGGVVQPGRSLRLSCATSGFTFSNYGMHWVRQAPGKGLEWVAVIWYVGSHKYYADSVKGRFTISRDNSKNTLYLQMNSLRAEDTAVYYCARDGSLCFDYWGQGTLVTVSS VL: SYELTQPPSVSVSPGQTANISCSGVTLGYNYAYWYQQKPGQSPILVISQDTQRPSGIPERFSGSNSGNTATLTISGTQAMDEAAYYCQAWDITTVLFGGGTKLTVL
Response: 22800 MFI
